System: Fibroblast
Assay: Incucyte cell viability with human fibroblast; also: filed as whole numbers so only -1 and 0 and 1 occur
Type: toxicity, cell-based
Details: 12 h, 10 µM, compound concentration 10 uM, replicate number 1, timepoint 12 hours
observable: Growth Rate
In your answer, state the number alone without any accompanying words.

compound	Growth Rate
Cn1nc(C(=O)NCc2ccc(C(=O)O)cc2)cc1-c1ccc2[nH]ccc2c1 [BI 4395]	1

Now for a further compound.
Value lookup for Growth Rate; key = CCOc1cc(C(=O)N2CCC(N3CCN(C)CC3)CC2)ccc1Nc1ncc2c(n1)N(C1CCCC1)c1ccccc1C(=O)N2C
0

---

Test system: Fibroblast
Test: Multiplex assay against human fibroblast
Format: toxicity, cell-based
Details: 12 h, 1 µM, compound concentration 1 uM, replicate 2
Below, each entry is listed with its recorded Population Membrane Permeable-Phenotype (%).
Give just the number in %; leave the unit off.

molecule	result-number
O=C1N/C(=N/c2ccccc2F)S/C1=C\c1ccc(C(=O)O)cc1	6
C=CCn1c(=O)c2cnc(Nc3ccc(N4CCN(C)CC4)cc3)nc2n1-c1cccc(C(C)(C)O)n1 [ADAVOSERTIB]	9
NC(=O)c1cccc(-c2cc(Nc3ccc(OC(F)(F)F)cc3)ncn2)c1	11
COc1cc(N2CCN(C)CC2)ccc1Nc1ncc2c(n1)N(C)c1ccccc1C(=O)N2C	9
Cl.O=c1c2cccn2c2ccccc2n1CCCN1CCC(c2ccc(Cl)cc2)CC1	0

Test system Fibroblast; read-out Population Membrane Permeable-Phenotype (%); what value for COc1cc2ncnc(Nc3ccc(F)c(Cl)c3)c2cc1NC(=O)/C=C/CN1CCCCC1 [DACOMITINIB ANHYDROUS] ?
12

Would you kindly repeat that for CN1C2CCC1CC(OC(c1ccc(F)cc1)c1ccc(F)cc1)C2.Cl (centres undefined) ?
3

Would you kindly repeat that for CCn1cc(-c2ccnc3[nH]c(-c4cccc(CN(C)C)c4)cc23)c(-c2ccc(NC(=O)N(C)C)cc2)n1 [GSK-1070916] ?
26

Would you kindly repeat that for Cl.O=C(c1ccc(Nc2nccc(-c3cc4ccccc4s3)n2)cc1)N1CCC(N2CCCC2)CC1 ?
0

---

Test system: HEK-293T
Assay: Multiplex assay against HEK293T
Format: toxicity, cell-based
Conditions: human, 48 h, 10 µM, compound concentration 10 uM, replicate 1
observable: Total Cell Count
In your answer, state the number alone without any accompanying words.

molecule	result-number
CCOc1cc(C(=O)N2CCC(N3CCN(C)CC3)CC2)ccc1Nc1ncc2c(n1)N(C1CCCC1)c1ccccc1C(=O)N2C	233
O=C(Cc1ccc(-c2ccc(OCCN3CCOCC3)cc2)cn1)NCc1ccccc1	160
O=C(Nc1ccc(-c2ccnc(Nc3ccc(N4CCOCC4)cc3)n2)cc1)[C@@H]1CCCN1	271
S=C(NCCCc1c[nH]cn1)NCCCN(Cc1ccc(Cl)c(Cl)c1)c1ccc(Br)cn1	369

Value lookup for Total Cell Count; key = CCN1CCN(Cc2ccc(Nc3ncc(F)c(-c4cc(F)c5nc(C)n(C(C)C)c5c4)n3)nc2)CC1.CS(=O)(=O)O
291

Would you kindly repeat that for CCn1c(=O)c(-c2ccc(-c3cncs3)cc2Cl)cc2cnc(Nc3ccc(N4CCN(C)CC4)cc3)nc21 ?
1798

Would you kindly repeat that for O=C1NC(=O)C(c2cnc3ccccn23)=C1c1cn2c3c(cc(F)cc13)CN(C(=O)N1CCCCC1)CC2 ?
200

Would you kindly repeat that for Cl.O=C(c1ccc(Nc2nccc(-c3cc4ccccc4s3)n2)cc1)N1CCC(N2CCCC2)CC1 ?
159

Would you kindly repeat that for CCCn1c(=O)c2[nH]c(-c3cnn(Cc4cccc(C(F)(F)F)c4)c3)nc2n(CC)c1=O ?
325

Would you kindly repeat that for Cl.Oc1ccc2c3c1O[C@H]1c4[nH]c5c(c4C[C@@]4(O)[C@@H](C2)N(CC2CC2)CC[C@]314)C[C@@]1(O)[C@H]2Cc3ccc(O)c4c3[C@@]1(CCN2CC1CC1)[C@H]5O4 ?
462

---

Test system: HEK-293T
Assay: Multiplex assay against HEK293T
Type: toxicity, cell-based
Conditions: human, 12 h, 10 µM, compound concentration 10 uM, replicate 2
Categories are assigned from the measured Population Pyknosed Nuclei (%) using these intervals: Low (below 20%), Medium (20% to below 70%), High (70% or more)

Band for the recorded Population Pyknosed Nuclei (%) of COc1cc2ncnc(Nc3ccc(F)c(Cl)c3)c2cc1NC(=O)/C=C/CN1CCCCC1 [DACOMITINIB ANHYDROUS] ?
Low

Would you kindly repeat that for CCOc1cc(C(=O)N2CCC(N3CCN(C)CC3)CC2)ccc1Nc1ncc2c(n1)N(C1CCCC1)c1ccccc1C(=O)N2C ?
High

Would you kindly repeat that for Cc1cc(C)c(S(=O)(=O)N(Cc2ccc(-c3cccc(S(C)(=O)=O)c3)cc2)Cc2ccc(C(F)(F)F)o2)c(C)c1 ?
Medium

Would you kindly repeat that for CCOc1cc2ncc(C#N)c(Nc3ccc(OCc4ccccn4)c(Cl)c3)c2cc1NC(=O)/C=C/CN(C)C ?
Low

Would you kindly repeat that for CCCS(=O)(=O)Nc1ccc(F)c(C(=O)c2c[nH]c3ncc(Cl)cc23)c1F ?
Low

Would you kindly repeat that for CCn1cc(-c2ccnc3[nH]c(-c4cccc(CN(C)C)c4)cc23)c(-c2ccc(NC(=O)N(C)C)cc2)n1 ?
Low

Would you kindly repeat that for NC(=O)c1cccc(-c2cc(Nc3ccc(OC(F)(F)F)cc3)ncn2)c1 ?
Low

Would you kindly repeat that for COc1cc(N2CCN(C)CC2)ccc1Nc1ncc2c(n1)N(C)c1ccccc1C(=O)N2C ?
High

Would you kindly repeat that for Cc1cn(-c2cc(NC(=O)c3ccc(C)c(Nc4nccc(-c5cccnc5)n4)c3)cc(C(F)(F)F)c2)cn1 ?
Medium

Would you kindly repeat that for CCOC(=O)c1c(C)[nH]c2ccc3c(c12)CN1CCc2cc(OC)ccc2C1O3 (configuration not stated) ?
High

---

System: U2OS
Assay: Multiplex assay against U2OS
Assay type: toxicity, cell-based
Details: human, 24 h, 1 µM, compound concentration 1 uM, replicate 1
# label = Condition met if Population Membrane Permeable-Phenotype (%) < 7% else Condition not met

smiles-data	assayed-system	category
CCn1cc(-c2ccnc3[nH]c(-c4cccc(CN(C)C)c4)cc23)c(-c2ccc(NC(=O)N(C)C)cc2)n1	U2OS	Condition not met
COc1cccc2cc(-c3nc([C@H]4CC[C@H](C(=O)O)CC4)n4ncnc(N)c34)[nH]c12	U2OS	Condition met
Cc1cc(C)c(S(=O)(=O)N(Cc2ccc(-c3cccc(S(C)(=O)=O)c3)cc2)Cc2ccc(C(F)(F)F)o2)c(C)c1	U2OS	Condition met

Moving on to another molecule below.
# strict comparison: is reported Population Membrane Permeable-Phenotype (%) < 7%? input = COC(=N)c1nc2ccc3ncnc(Nc4ccc(OC)cc4F)c3c2s1
Condition not met

---

Tested on: HEK-293T
Test: Multiplex assay against HEK293T;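 as to Population Tubulin-Different-Phenotype (%): share of the cells with healthy nuclei that show this phenotype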
Assay type: toxicity, cell-based
Details: human, 24 h, 10 µM, compound concentration 10 uM, replicate 1
observable: Population Tubulin-Different-Phenotype (%)
The reply should consist of the numeric value with the unit placed after it.

Value lookup for Population Tubulin-Different-Phenotype (%); key = CNc1cc(Oc2cc(C(=O)Nc3cc(N4CCN(C)CC4)cc(C(F)(F)F)c3)ccc2C)ncn1
100%

Would you kindly repeat that for CCn1c(=O)c(-c2ccc(-c3cncs3)cc2Cl)cc2cnc(Nc3ccc(N4CCN(C)CC4)cc3)nc21 ?
97%

Would you kindly repeat that for Cc1cn(-c2cc(NC(=O)c3ccc(C)c(Nc4nccc(-c5cccnc5)n4)c3)cc(C(F)(F)F)c2)cn1 ?
51%

---

System: Fibroblast
Test: Incucyte cell viability with human fibroblast; also: filed as whole numbers so only -1 and 0 and 1 occur
Assay type: toxicity, cell-based
Conditions: 6 h, 10 µM, compound concentration 10 uM, replicate number 1, timepoint 6 hours
Below, each entry is listed with its recorded Growth Rate.
In your answer, state the number alone without any accompanying words.

compound	Growth Rate
OCCn1cc(-c2cnc3nnn(Cc4ccc5ncccc5c4)c3n2)cn1 [PF-04217903]	1
C[C@]12CCC(=O)C=C1CC[C@@H]1[C@@H]2[C@@H](O)C[C@]2(C=O)[C@@H](C(=O)CO)CC[C@@H]12 [ALDOSTERONE]	0
CN(C)C(=O)C(CCN1CCC(O)(c2ccc(Cl)cc2)CC1)(c1ccccc1)c1ccccc1.Cl [LOPERAMIDE HYDROCHLORIDE]	0

Now for a further compound.
Test system Fibroblast; read-out Growth Rate; what value for Cc1cnc(Nc2ccc(F)cc2Cl)nc1-c1c[nH]c(C(=O)N[C@H](CO)c2cccc(Cl)c2)c1 ?
0

---

System: HEK-293T
Experiment: Multiplex assay against HEK293T
Format: toxicity, cell-based
Details: human, 24 h, 10 µM, compound concentration 10 uM, replicate 1
Categories are assigned from the measured Population Healthy Nuclei (%) using these intervals: lower level (below 8%), middle level (8% to below 60%), upper level (60% or more)

smiles-data	category
Cl.O=c1c2cccn2c2ccccc2n1CCCN1CCC(c2ccc(Cl)cc2)CC1	middle level
O=C(Nc1ccc(-n2nc(-c3cccnc3)cc2C(F)(F)F)cn1)c1ccc(-c2ccccc2)c(F)c1	middle level
CCCS(=O)(=O)c1nc(NC2CC2)cc(-c2ccc3c(ccn3C3CC(C)(C)NC(C)(C)C3)c2)n1	lower level

Band for the recorded Population Healthy Nuclei (%) of CCN1CCN(Cc2ccc(Nc3ncc(F)c(-c4cc(F)c5nc(C)n(C(C)C)c5c4)n3)nc2)CC1.CS(=O)(=O)O ?
lower level

Would you kindly repeat that for C=CCn1c(=O)c2cnc(Nc3ccc(N4CCN(C)CC4)cc3)nc2n1-c1cccc(C(C)(C)O)n1 ?
middle level

Would you kindly repeat that for NC(=O)c1cccc(-c2cc(Nc3ccc(OC(F)(F)F)cc3)ncn2)c1 ?
upper level

Would you kindly repeat that for CCc1cccc(CC)c1NC(=O)c1nn(C)c2c1CCc1cnc(Nc3ccc(N4CCN(C)CC4)cc3OC)nc1-2 ?
upper level

Would you kindly repeat that for CCn1cc(-c2ccnc3[nH]c(-c4cccc(CN(C)C)c4)cc23)c(-c2ccc(NC(=O)N(C)C)cc2)n1 ?
middle level
